- STUDY_SYSTEM: SARS-CoV-2 spike protein trimer, Beta (B.1.351) variant (SARS-CoV-2, UniProt P0DTC2 16-1213)
- TEST_METHOD_NOTES: ELISA, purified IgG

BINDER | binding result
SEQ ID NO 18 (antibody, V domains shown, As m4; also called selected clone from LxC libraries; LxC clone) VH: EVQLVESGGGLVQPGGSLRLSCTVSGFSLSTYAMSWVRQAPGKGLEWIGVIASNADTYYASWAKGRFTISRDNSKNTLYLQMNSLRAEDTAVYYCARHPGSAGYGYAVYYAMDPWGQGTLVTVSS VL: DIQMTQSPSSLSASVGDRVTITCKASEDIRYGLNWYQQKPGKAPKLLIYGGSYLRWGVPSRFSGSGSGTDYTLTISSLQPEDFATYYCQQGYRVPIRFGGGTKVEIK | binds
